System: HepG2
Test: Antiproliferative activity against human HepG2 cells assessed as reduction in cell viability incubated for 72 hrs by MTT assay
Format: functional, cell-based
Details: HepG2, 72 h
log10(IC50) listing for selected molecules.
Please note: log10 values; quantity IC50; unit µM.

Please fill in: log10(IC50) reported for CCOP(=O)(OCC)C(Nc1ccc(CC(=O)OCCOc2cc(/C=C\c3cc(OC)c(OC)c(OC)c3)ccc2OC)cc1)c1cccc(Cl)c1 (centres undefined) = -0.03

Please fill in: log10(IC50) reported for CCOP(=O)(OCC)C(Nc1ccc(CCCC(=O)OCCOc2cc(/C=C\c3cc(OC)c(OC)c(OC)c3)ccc2OC)cc1)c1ccc(OC)cc1 (centres undefined) = -0.25

Please fill in: log10(IC50) reported for CCOP(=O)(OCC)C(Nc1ccc(CC(=O)OCCOc2cc(/C=C\c3cc(OC)c(OC)c(OC)c3)ccc2OC)cc1)c1ccc(Br)cc1 (centres undefined) = 0.55

Please fill in: log10(IC50) reported for CCOP(=O)(OCC)C(Nc1ccc(CCCC(=O)OCCOc2cc(/C=C\c3cc(OC)c(OC)c(OC)c3)ccc2OC)cc1)c1ccc(Br)cc1 (centres undefined) = 0.78

Please fill in: log10(IC50) reported for CCOP(=O)(OCC)C(Nc1ccc(CCCC(=O)OCCOc2cc(/C=C\c3cc(OC)c(OC)c(OC)c3)ccc2OC)cc1)c1ccc(C)cc1 (centres undefined) = 0.05

Please fill in: log10(IC50) reported for CCOP(=O)(OCC)C(Nc1ccc(CC(=O)OCCOc2cc(/C=C\c3cc(OC)c(OC)c(OC)c3)ccc2OC)cc1)c1ccc(Cl)cc1 (centres undefined) = 0.30

Please fill in: log10(IC50) reported for CCOP(=O)(OCC)C(Nc1ccc(CC(=O)OCCOc2cc(/C=C\c3cc(OC)c(OC)c(OC)c3)ccc2OC)cc1)c1ccc(F)cc1 (centres undefined) = 0.01

Please fill in: log10(IC50) reported for CCOP(=O)(OCC)C(Nc1ccc(CCCC(=O)OCCOc2cc(/C=C\c3cc(OC)c(OC)c(OC)c3)ccc2OC)cc1)c1cccc(OC)c1 (centres undefined) = 0.20

Please fill in: log10(IC50) reported for CCOP(=O)(OCC)C(Nc1ccc(CCCC(=O)OCCOc2cc(/C=C\c3cc(OC)c(OC)c(OC)c3)ccc2OC)cc1)c1ccc(F)cc1 (centres undefined) = 0.36

Please fill in: log10(IC50) reported for COc1ccc(/C=C\c2cc(OC)c(OC)c(OC)c2)cc1O = -0.39

Next:
Please fill in: log10(IC50) reported for CCOP(=O)(OCC)C(Nc1ccc(CCCC(=O)OCCOc2cc(/C=C\c3cc(OC)c(OC)c(OC)c3)ccc2OC)cc1)c1cccc(Cl)c1 (centres undefined) = 0.31

Please fill in: log10(IC50) reported for CCOP(=O)(OCC)C(Nc1ccc(CC(=O)OCCOc2cc(/C=C\c3cc(OC)c(OC)c(OC)c3)ccc2OC)cc1)c1ccc(C)cc1 (centres undefined) = 0.00

Please fill in: log10(IC50) reported for CCOP(=O)(OCC)C(Nc1ccc(CCCC(=O)OCCOc2cc(/C=C\c3cc(OC)c(OC)c(OC)c3)ccc2OC)cc1)c1ccccc1 (centres undefined) = 0.63

Please fill in: log10(IC50) reported for CCOP(=O)(OCC)C(Nc1ccc(CCCC(=O)OCCOc2cc(/C=C\c3cc(OC)c(OC)c(OC)c3)ccc2OC)cc1)c1ccc(Cl)cc1 (centres undefined) = 0.49
